Experiment: HILIC, Waters ACQUITY UPLC BEH Amide, 150 × 2.1 mm, 1.7 µm, 40 °C, 0.5 mL/min, estimated dead time 0.66 min; A: 5% water + 95% acetonitrile; B: 70% water + 30% acetonitrile + 10 mM ammonium formate, pH 6.5; gradient (min/%B) 0/0 2/0 20/70 23/70 24/0 31/0
Conditions: stereoisomer not certain
So I've got a bunch of compounds here, and I need their LC retention time values.
One number for each entry, in min.

| compound | LC retention time, min |
| --- | --- |
| NCCc1ccc(O)cc1 | 7.72 |

Each compound below has a reported value. Please supply its LC retention time.
1. CC(CC(=O)O)CC(=O)O [METHYGLUTARATE]
2. CC(=O)OCC(=O)C1(O)CCC2C3CCC4=CC(=O)CCC4(C)C3C(O)CC21C (centres undefined) [CORTISOL 21-ACETATE]
3. CCCCCCCCCC(=O)OCC(COP(=O)([O-])OCC[N+](C)(C)C)OC(=O)CCCCCCCCC (centres undefined)

RESULT:
1: 1.27; 2: 0.83; 3: 5.15
